- Tested on: VERO cells
- procedure-details: MTT reduction viability assay on VERO cells
- Assay type: cell-based
- test-conditions: Chlorocebus sabaeus, 24 hours exposure, mean ± SD
pEC50: −log10 of the molar value.
recorded-metric: pEC50

Here are 2 molecules together with their reported answers.
INSERT INTO measurements (molecule, recorded_metric, assay_result) VALUES
  ('O=C(OCCCCCCCC[P+](c1ccccc1)(c1ccccc1)c1ccccc1)c1cc(O)c(O)c(O)c1.[Br-] [TPP^+-C8]', 'pEC50', '< 4.00'),
  ('CC1CS(=O)(=O)CCN1/N=C/c1ccc([N+](=O)[O-])o1 (stereo not drawn) [Nifurtimox, reference compound]', 'pEC50', '< 4.00');

// below: pEC50 requested for another molecule
Problem: Please supply the value of reported pEC50 for the item O=C(OCCCCCCCCCCC[P+](c1ccccc1)(c1ccccc1)c1ccccc1)c1cc(O)c(O)c(O)c1.[Br-] [TPP^+-C11]
Result: < 4.00
